Hi there, I'd appreciate the recorded logD for every entry that follows.
test: Lipophilicity, log D of the compound at pH 7.4 by HPLC analysis; type: physicochemical; settings: buffer

Look up logD for this compound: CNCc1cc(-c2ccccc2)n(S(=O)(=O)c2ccc(OC)cc2)c1
1.54

Give its logD value. Item: CNCc1cc(-c2ccccc2C(F)(F)F)n(S(=O)(=O)c2ccc(C)cc2)c1
1.94

State the recorded logD for this entry: CNCc1cc(-c2cccnc2F)n(S(=O)(=O)c2ccc(OC)nc2)c1
0.24

# logD lookup, item CNCc1cc(-c2cncnc2)n(S(=O)(=O)c2ccccc2)c1
-0.4

Entry CNCc1cc(-c2ncccc2C)n(S(=O)(=O)c2cccnc2)c1 has what logD?
0.53

Suppose we examine the compound CNCc1cn(S(=O)(=O)c2cccnc2)c(-c2cccnc2F)c1C ; what logD value has been reported?
-0.4

Recorded logD for CNCc1cc(-c2ccccc2)n(S(=O)(=O)c2ccccc2)c1 , please?
1.44

What value of logD has been recorded for this entry: CNCc1cc(-c2cccnc2F)n(S(=O)(=O)c2ccccc2)c1
-0.09

Recorded logD for CNCc1cc(-c2cccnc2C#N)n(S(=O)(=O)c2ccccc2)c1 , please?
-0.32

Form field: reported logD of CNCc1cc(-c2ccc(F)cc2)n(S(=O)(=O)c2ccc(C)cc2)c1
2.05

Endpoint output: logD of CNCc1cc(-c2ccccc2F)n(S(=O)(=O)c2cccnc2)c1 . Value?
0.39

###

test: Lipophilicity, log D of the compound at pH 7.4 by HPLC analysis; format: physicochemical; conditions: buffer
Could you mark each record t if its logD falls strictly under 0.1, and f if it equals or exceeds it?

Lab note: confirm whether the reported logD for this compound is below 0.1, equality not counting. compound: CNCc1cc(-c2cccnc2F)n(S(=O)(=O)c2cccc(C#N)c2)c1
t

Quick check: does CNCc1cc(-c2ccncc2F)n(S(=O)(=O)c2cccnc2)c1 have logD under 0.1?
t

Please let me know if CNCc1cc(-c2cccc(F)c2)n(S(=O)(=O)c2ccc(C)cc2)c1 shows logD below 0.1.
f

Regarding CNCc1cc(-c2cccnc2F)n(S(=O)(=O)c2ccoc2)c1 , kindly confirm whether its logD is beneath 0.1.
t

Find out if reported logD for CNCc1cc(-c2cccnc2)n(S(=O)(=O)c2ccccc2)c1 is less than 0.1
t

Hi there! Is logD for CNCc1cc(-c2ccccc2F)n(S(=O)(=O)c2ccc(C)cc2)c1 below 0.1, do you know?
f

Regarding CNCc1cc(-c2ccccn2)n(S(=O)(=O)c2ccccc2)c1 , kindly confirm whether its logD is beneath 0.1.
f

Bench note: check whether CNCc1cc(-c2cccnc2F)n(S(=O)(=O)c2ccco2)c1 shows logD below 0.1
t

Consider CNCc1cc(-c2cccnc2F)n(S(=O)(=O)c2cccnc2)c1 . Does its logD lie strictly below 0.1?
t

Consider the compound CNCc1cc(-c2cccnc2Cl)n(S(=O)(=O)c2cccnc2)c1 . Is its logD strictly less than 0.1?
t

###

test: Lipophilicity, log D of the compound at pH 7.4 by HPLC analysis; type: physicochemical; settings: buffer
measured_quantity: logD
Response field accepts a number only; no unit should be typed.

If you can, please state the reported logD value of CNCc1cn(S(=O)(=O)c2cccnc2)c(-c2cccnc2F)c1Cl .
0.48

I'd like to know its logD. The compound in question is CNCc1cc(-c2cccnc2F)n(S(=O)(=O)c2cccc(F)c2)c1
0.23

What value of logD has been recorded for this entry: CNCc1cc(-c2cccnc2F)n(S(=O)(=O)c2cccs2)c1
-0.69

Look up logD: CNCc1cc(-c2cccnc2C#N)n(S(=O)(=O)c2cccnc2)c1
-1.29

Field request: logD | item: CNCc1cn(S(=O)(=O)c2cccnc2)c(-c2cccnc2F)c1F
0.04

Returns the measured logD for the input compound. Input: CNCc1cc(-c2cccnc2F)n(S(=O)(=O)c2ccsc2)c1
-0.83

Which measured logD value corresponds to CNCc1cc(-c2ccccc2C)n(S(=O)(=O)c2ccc(C)cc2)c1 ?
2.12

Looking for the measured logD of CNCc1cc(-c2cnccc2C)n(S(=O)(=O)c2cccnc2)c1 , can you help?
-0.51

Bench note: what logD did CNCc1cc(-c2ccccc2)n(S(=O)(=O)c2ccc(C)cc2)c1 show?
1.83

Recorded logD of CNCc1cc(-c2cccnc2Cl)n(S(=O)(=O)c2ccccc2)c1 , please.
-0.1

Please look up its logD: CNCc1cc(-c2cccnc2C)n(S(=O)(=O)c2cccnc2)c1
0.06

Consider the compound CNCc1cc(-c2cccnc2F)n(S(=O)(=O)c2ccccn2)c1 and give its measured logD.
0.05

Which logD is listed for CNCc1cc(-c2ccccc2)n(S(=O)(=O)c2cccnc2)c1 ?
0.73

###

experiment: Inhibition of H+/K+-ATPase in porcine stomach gastric mucosal microsomes assessed as reduction in inorganic phosphate production using ATP as substrate preincubated for 30 mins followed by ATP addition in presence of KCl by malachite green reagent based colorimetric assay; set-up: species or system Sus scrofa
Mark each entry Fulfilled if its IC50 sits below 50 nM, and Not fulfilled for all others.

Does this molecule meet the criterion IC50 < 50 nM? CNCc1cc(-c2cccnc2F)n(S(=O)(=O)c2cccc(C#N)c2)c1
Not fulfilled

Consider CNCc1cc(-c2cccnc2C)n(S(=O)(=O)c2cccnc2)c1 . Does its IC50 lie strictly below 50 nM?
Not fulfilled

Strictly below 50 nM in IC50? CNCc1cc(-c2ccccc2C)n(S(=O)(=O)c2ccc(C)cc2)c1
Not fulfilled

Quick check: does CNCc1cc(-c2cccnc2F)n(S(=O)(=O)c2cccc(F)c2)c1 have IC50 under 50 nM?
Fulfilled

Hello, is IC50 of the following molecule strictly smaller than 50 nM? CNCc1cn(S(=O)(=O)c2cccnc2)c(-c2cccnc2F)c1C
Not fulfilled

Lab note: IC50 threshold 50 nM. Does this molecule come in strictly under it? CNCc1cc(-c2cccnc2F)n(S(=O)(=O)c2ccccn2)c1
Not fulfilled

Field: below-cutoff. Rule: recorded IC50 strictly less than 50 nM. Subject: CNCc1cc(-c2ccccc2C(F)(F)F)n(S(=O)(=O)c2ccc(C)cc2)c1
Not fulfilled

# strict comparison: is reported IC50 < 50 nM? input = CNCc1cc(-c2cccnc2C#N)n(S(=O)(=O)c2cccnc2)c1
Not fulfilled

Strictly below 50 nM in IC50? CNCc1cc(-c2cccnc2F)n(S(=O)(=O)c2ccc(OC)nc2)c1
Fulfilled

Field: below-cutoff. Rule: recorded IC50 strictly less than 50 nM. Subject: CNCc1cc(-c2ncccc2C)n(S(=O)(=O)c2cccnc2)c1
Not fulfilled

Is 50 nM strictly greater than the molecule's reported IC50? molecule: CNCc1cc(-c2cccnc2Cl)n(S(=O)(=O)c2cccnc2)c1
Not fulfilled

Is IC50 strictly under 50 nM for the entry CNCc1cc(-c2cccnc2F)n(S(=O)(=O)c2ccoc2)c1 ?
Not fulfilled

Does the reported IC50 of the following molecule sit strictly below 50 nM? CNCc1cc(-c2cccnc2C#N)n(S(=O)(=O)c2ccccc2)c1
Not fulfilled

Could you please tell me whether IC50 recorded for CNCc1cc(-c2ccccc2)n(S(=O)(=O)c2ccccc2)c1 is less than 50 nM?
Fulfilled

IC50 under 50 nM? Item: CNCc1cc(-c2ccncc2F)n(S(=O)(=O)c2cccnc2)c1
Not fulfilled

Consider the molecule CNCc1cc(-c2ccccn2)n(S(=O)(=O)c2ccccc2)c1 . Is its IC50 strictly less than 50 nM?
Not fulfilled

Could you please tell me whether IC50 recorded for CNCc1cc(-c2ccc(F)cc2)n(S(=O)(=O)c2ccc(C)cc2)c1 is less than 50 nM?
Not fulfilled

Criterion: IC50 strictly below 50 nM. Is it met by CNCc1cc(-c2ccccc2F)n(S(=O)(=O)c2ccc(C)cc2)c1 ?
Fulfilled

Problem: For the molecule CNCc1cc(-c2cccnc2Cl)n(S(=O)(=O)c2ccccc2)c1 , is IC50 under 50 nM?
Fulfilled

Given CNCc1cc(-c2cccnc2)n(S(=O)(=O)c2ccccc2)c1 , is recorded IC50 strictly lower than 50 nM?
Not fulfilled

Just wondering, is IC50 of CNCc1cc(-c2ccccc2)n(S(=O)(=O)c2ccc(OC)cc2)c1 below 50 nM?
Fulfilled

###

Assignment: determine reported viability at 24 h, 100 µM for the given compounds.
test: Cytotoxicity against human HepG2 cells assessed as cellular ATP level at 100 uM after 1 day by ATPLite assay relative to control; type: cell-based; details: read-out: Activity

Requested read-out: viability at 24 h, 100 µM. Entry: CNCc1cc(-c2ccccn2)n(S(=O)(=O)c2ccccc2)c1
91.2%

For the compound CNCc1cc(-c2cccnc2F)n(S(=O)(=O)c2ccccn2)c1 , what viability at 24 h, 100 µM is on record?
78.6%

Find the recorded viability at 24 h, 100 µM belonging to CNCc1cc(-c2cccnc2F)n(S(=O)(=O)c2ccccc2)c1 and report it.
59.9%

# query: viability at 24 h, 100 µM of entry CNCc1cc(-c2ncccc2C)n(S(=O)(=O)c2cccnc2)c1
88.7%

Fill in the blank: the reported viability at 24 h, 100 µM of CNCc1cc(-c2cccnc2F)n(S(=O)(=O)c2cccc(C#N)c2)c1 is ____.
46.7%

Give its viability at 24 h, 100 µM value. Item: CNCc1cc(-c2cccnc2F)n(S(=O)(=O)c2ccoc2)c1
77.4%

Entry source: ChEMBL document CHEMBL4020734
